Overview of recorded hepatocyte CLint for various molecules
Test: Metabolic stability in human hepatocytes assessed as intrinsic clearance measured per 10^6 cells
Type: ADME, cell-based, Hepatocyte
Details: read-out: CLH

Take a look at these entries with their results.
CN1CCC(n2cc(Nc3nc(OC4(C)CC4)c4nc(-c5cncnc5)c(F)cc4n3)cn2)CC1 | 14 µL/min/1e6 cells
Cc1ncc(-c2nc3c(NC(C)C)nc(Nc4cnn(C5CC6(C5)CN(C)C6)c4)nc3cc2F)cn1 | < 1 µL/min/1e6 cells
Cc1ncc(-c2nc3c(NC4(C)CC4)nc(Nc4cnn(C5CC6(C5)CN(C)C6)c4)nc3cc2F)cn1 | < 1 µL/min/1e6 cells
Cc1ncc(-c2ccc3nc(Nc4cnn(C5CCN(C)CC5)c4)nc(OC4(C)CC4)c3n2)c(C)n1 | 3.4 µL/min/1e6 cells
Cc1ncc(-c2nc3c(OC4(C)CC4)nc(Nc4cnn([C@@H]5C[C@@H]6C[C@H]5CN6C)c4)nc3cc2F)cn1 | < 1 µL/min/1e6 cells
Cc1ncc(-c2nc3c(OC4(C)CC4)nc(Nc4cnn(C5CCN(C)CC5)c4)nc3cc2F)cn1 | < 1 µL/min/1e6 cells
CN1CCC(n2cc(Nc3nc(OC4(C)CC4)c4nc(-c5cncnc5)ccc4n3)cn2)CC1 | 110 µL/min/1e6 cells

So for CN1CCC(n2cc(Nc3nc(OC4(C)CC4)c4nc(-c5cn(C)nn5)ccc4n3)cn2)CC1 , the logged hepatocyte CLint turned out to be < 1 µL/min/1e6 cells

###

Molecular target: Interleukin-1 receptor-associated kinase 4 (Homo sapiens, UniProt Q9NWZ3)
Sequence (Q9NWZ3 whole entry): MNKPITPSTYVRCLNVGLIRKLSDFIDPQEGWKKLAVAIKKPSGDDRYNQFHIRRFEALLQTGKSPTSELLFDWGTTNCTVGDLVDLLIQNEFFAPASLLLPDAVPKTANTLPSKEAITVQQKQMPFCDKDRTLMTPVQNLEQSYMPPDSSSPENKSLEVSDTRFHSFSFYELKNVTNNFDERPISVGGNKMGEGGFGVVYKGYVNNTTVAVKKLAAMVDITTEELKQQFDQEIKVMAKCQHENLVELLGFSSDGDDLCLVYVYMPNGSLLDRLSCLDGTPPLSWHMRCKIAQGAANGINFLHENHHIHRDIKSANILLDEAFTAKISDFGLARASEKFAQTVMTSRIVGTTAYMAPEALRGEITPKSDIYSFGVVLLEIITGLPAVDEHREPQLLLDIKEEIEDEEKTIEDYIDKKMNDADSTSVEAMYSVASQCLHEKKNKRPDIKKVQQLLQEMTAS
Assay: Inhibition of IRAK4 (unknown origin) in presence of ATP by enzymatic assay
pIC50 overview
Quick note: pIC50 means taking -log10 of the concentration in moles per liter.

Cn1cc(Nc2nc(NC3(C)CC3)c3nc(CC#N)ccc3n2)cn1 | 8.70
CN1CCC(n2cc(Nc3nc(OC4(C)CC4)c4nc(-c5cncnc5)ccc4n3)cn2)CC1 | 9.22

Sure, the documented pIC50 for CN1CCC(n2cc(Nc3nc(OC4(C)CC4)c4nc(-c5cn(C)nn5)ccc4n3)cn2)CC1 is 7.72

// sample Cc1ncc(-c2nc3c(NC4(C)CC4)nc(Nc4cnn(C5CC6(C5)CN(C)C6)c4)nc3cc2F)cn1 , its pIC50 was 9.22

Lab note: CN1CCC(n2cc(Nc3nc(OC4(C)CC4)c4nc(-c5ccnnc5)ccc4n3)cn2)CC1 gave pIC50 of 9.00

Recorded values, source ChEMBL document CHEMBL5244269.
